B1: NOTCH4 peptide 1604-1619 (Neurogenic locus notch homolog protein 4), 16-mer library wild type / NSP9 (ORF1ab Nsp9, residues 4141-4253) (parent)
chain 1: TFQGAWLGAPEPWEPL
chain 2: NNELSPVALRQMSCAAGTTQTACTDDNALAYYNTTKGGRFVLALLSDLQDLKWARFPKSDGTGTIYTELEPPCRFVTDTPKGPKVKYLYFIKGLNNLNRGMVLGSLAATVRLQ

Variants of: B1
Conditions: with NSP9 (ORF1ab Nsp9, residues 4141-4253); bait immobilised on MaxiSorp plates (10 µg), library pre-cleared on GST, 2 h binding at 4 °C, five washes; one round per day, days 1-4; value from days 2 and 3; keep out of graded; scale: average fractional NGS count over selection days 2 and 3
QUANTITY KIND: screen value
One number for each entry.

Sample answers from the record:
chain 1 P10G ... 0
chain 1 P15S ... 0
chain 1 G8E ... 0
chain 1 Q3E ... 2.09e-05
chain 1 F2I ... 0

Parameters: items (list). Returns: screen value for each item.
1. chain 1 G4D
2. chain 1 F2A
3. chain 1 G4R
4. chain 1 G8V
5. chain 1 A5T
6. chain 1 G4V

Response given:
1. 0
2. 0.000265
3. 0
4. 0
5. 0
6. 0
